- assay protocol: Pharmacokinetic study, intravenous bolus injection in rats
- Assay type: in vivo
- applied conditions: Sprague Dawley, plasma, rat, dose 0.2 mg/kg, 2 hour post dose, read-out: Concentration in Rat Plasma after Bolus Injection, Mean
quantity kind: concentration at 2 hour (ng/mL)
Numbers only; they are read as ng/mL.

Dear colleague, I am looking for the recorded concentration at 2 hour of the following molecule: `CC1=C[C@H]2[C@@]3(O)[C@H](C)C[C@]4(OC(=O)[C@@H](N)CC5CCCCC5)[C@H]([C@@H]3C=C(CO)C[C@]2(O)C1=O)C4(C)C`
29.1

###

- assayed target: C1b domain of human PKD1 (PKCμ) (Homo sapiens)
- Construct: Genes encoding C1b domains of human PKCα, δ, ε, θ, and PKD1 (PKCμ) were synthesized; made in house; host or cells: E. coli BL21(DE3)
- Sequence (Q15139 270-320 limits assumed): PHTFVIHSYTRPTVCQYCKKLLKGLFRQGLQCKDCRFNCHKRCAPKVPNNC
- assay protocol: biochemical
- Type: binding
quantity kind: Ki

Examples from the recorded data:
Dear colleague, I am looking for the recorded Ki of the following molecule: `CC1=C[C@H]2[C@@]3(O)[C@H](C)C[C@]4(OC(=O)C[C@H](N)Cc5ccccc5)[C@H]([C@@H]3C=C(CO)C[C@]2(O)C1=O)C4(C)C`
5 to 10 nM

Dear colleague, I am looking for the recorded Ki of the following molecule: `CC1=C[C@H]2[C@@]3(O)[C@H](C)C[C@]4(OC(=O)[C@@H](N)CCCCCCc5ccc(C(F)(F)F)cc5)[C@H]([C@@H]3C=C(CO)C[C@]2(O)C1=O)C4(C)C`
5 to 10 nM

Dear colleague, I am looking for the recorded Ki of the following molecule: `CC1=C[C@H]2[C@@]3(O)[C@H](C)C[C@]4(OC(=O)C[C@@H](N)c5ccccc5)[C@H]([C@@H]3C=C(CO)C[C@]2(O)C1=O)C4(C)C`
30 to 60 nM

Dear colleague, I am looking for the recorded Ki of the following molecule: `CC1=C[C@H]2[C@@]3(O)[C@H](C)C[C@]4(OC(=O)[C@H](N)CCCCCCc5ccccc5)[C@H]([C@@H]3C=C(CO)C[C@]2(O)C1=O)C4(C)C`
< 5 nM

---
Dear colleague, I am looking for the recorded Ki of the following molecule: `CC1=C[C@H]2[C@@]3(O)[C@H](C)C[C@]4(OC(=O)[C@@H](N)Cc5c[nH]c6ccccc56)[C@H]([C@@H]3C=C(CO)C[C@]2(O)C1=O)C4(C)C`
5 to 10 nM

Dear colleague, I am looking for the recorded Ki of the following molecule: `CC1=C[C@H]2[C@@]3(O)[C@H](C)C[C@]4(OC(=O)[C@H](N)CC5CCCCC5)[C@H]([C@@H]3C=C(CO)C[C@]2(O)C1=O)C4(C)C`
5 to 10 nM

Dear colleague, I am looking for the recorded Ki of the following molecule: `CC1=C[C@H]2[C@@]3(O)[C@H](C)C[C@]4(OC(=O)[C@H](N)Cc5c[nH]c6ccccc56)[C@H]([C@@H]3C=C(CO)C[C@]2(O)C1=O)C4(C)C`
1 to 30 nM

Dear colleague, I am looking for the recorded Ki of the following molecule: `CC1=C[C@H]2[C@@]3(O)[C@H](C)C[C@]4(OC(=O)[C@@H](N)CC5CCCC5)[C@H]([C@@H]3C=C(CO)C[C@]2(O)C1=O)C4(C)C`
5 to 10 nM

Dear colleague, I am looking for the recorded Ki of the following molecule: `CC1=C[C@H]2[C@@]3(O)[C@H](C)C[C@]4(OC(=O)CCc5cnn(C)c5)[C@H]([C@@H]3C=C(CO)C[C@]2(O)C1=O)C4(C)C`
100 to 200 nM

Dear colleague, I am looking for the recorded Ki of the following molecule: `CC1=C[C@H]2[C@@]3(O)[C@H](C)C[C@]4(OC(=O)[C@@H](N)CCc5ccccc5)[C@H]([C@@H]3C=C(CO)C[C@]2(O)C1=O)C4(C)C`
< 5 nM

Dear colleague, I am looking for the recorded Ki of the following molecule: `CC1=C[C@H]2[C@@]3(O)[C@H](C)C[C@]4(OC(=O)CCc5ccccn5)[C@H]([C@@H]3C=C(CO)C[C@]2(O)C1=O)C4(C)C`
30 to 60 nM
